Cited source: PubChem BioAssay

- Assay method text: inhibitors of mitochondrial cytochrome c release, biochemical, purified mitochondria (AID 1603);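 further: mouse liver mitochondria challenged with calcium chloride; signal normalized to the plate average as 100%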
- Assay context: stronger effect = lower value
Peptide text beside a SMILES is read from it.
# if measured cytochrome c release ratio < 1: 1.0  # else: 0.0

These solved cases illustrate the format of a correct answer.
compound=NC(=O)c1ccc[n+]([C@@H]2O[C@H](COP(=O)([O-])OP(=O)(O)OC[C@H]3O[C@@H](n4cnc5c(N)ncnc54)[C@H](O)[C@@H]3O)[C@@H](O)[C@H]2O)c1 category=1.0
compound="CC(CCc1ccccc1)NCC(O)c1ccc(O)c(C(N)=O)c1 (configuration not stated)" category=1.0
compound=CNCCCN1c2ccccc2CCc2ccccc21 category=0.0
compound="CN(C)CCC(c1ccc(Cl)cc1)c1ccccn1 (configuration not stated)" category=1.0
compound="CN1C(CC(=O)c2ccccc2)CCCC1CC(O)c1ccccc1 (configuration not stated)" category=1.0
compound=NC(N)=O category=0.0
compound=N[C@H](Cc1ccccc1)C(=O)O category=1.0
compound=CC(=O)NCCc1c[nH]c2ccc(O)cc12 category=1.0
compound="CC(=O)N[C@@H](CC(=O)O)C(=O)N[C@@H](CCC(=O)O)C(=O)O (Ac-Asp-Glu-OH)" category=0.0
compound="Cn1nnnc1SCC1=C(C(=O)O)N2C(=O)C(NC(=O)C(OC=O)c3ccccc3)C2SC1 (configuration not stated)" category=0.0

Request: Consider CC(N)C(=O)NC(Cc1ccccc1)C(=O)O (configuration not stated) . Does its cytochrome c release ratio lie strictly below 1?
Result: 0.0

---

- Assay method text: SU-DIPG-XXV glioma cell viability, MIPE5.0 library, qHTS (AID 1347068)
Inconclusive results are not listed. The source made the active and inactive calls. No cut-off is given here; in the data, nearly all actives have IC50 up to about 30 µM.
Permitted responses: active, inactive

Example cases with answers are listed next.
molecule=C[C@]12CCC(=O)C=C1[C@@H]1C[C@@H]1[C@H]1[C@@H]3[C@@H]4C[C@@H]4[C@@]4(CCC(=O)O4)[C@@]3(C)CC[C@@H]12 category=inactive
molecule=O=C(O)[C@H](O)[C@@H](O)[C@H](O[C@@H]1O[C@H](CO)[C@H](O)[C@H](O)[C@H]1O)[C@H](O)CO category=inactive
molecule=O=C(Nc1ccc(S(=O)(=O)N2CCOCC2)cc1)c1cc(Cl)ccc1NS(=O)(=O)c1ccc(Cl)s1 category=inactive

Request: Just curious, what result did O=c1[nH]c(=O)n([C@H]2C[C@H](O)[C@@H](CO)O2)cc1C(F)(F)F get here?
Result: inactive

Request: Hello, I am checking results. What call was entered for C[C@@H](CN1CC(=O)NC(=O)C1)N1CC(=O)NC(=O)C1 ?
Result: inactive

Request: Dear colleague, could you share the recorded outcome for CN(C(=O)c1c(O)c2ccccc2n(C)c1=O)c1ccccc1 when you have a moment?
Result: inactive

Request: Test call for this molecule, please: O=C(O)c1nc(=O)[nH]c(=O)[nH]1
Result: inactive

Request: Please let me know the test result on file for COc1c2occc2cc2ccc(=O)oc12 .
Result: inactive

---

- Assay method text: survival rescue of mitochondrial mutant cells in low glucose, primary screen, MELAS cybrids, Rieske KO mouse fibroblasts, CellTiter-Glo (AID 1508586);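 further: z relative to plate mean and SD of compound and empty wells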
- Assay context: Rieske KO mouse fibroblast survival, CellTiter-Glo 72 h
Give z-score for every item shown.
Answers are plain numbers.

Past entries and their recorded results:
compound=C[C@@H]1C[C@H]2[C@@H]3CCC4=CC(=O)C=C[C@]4(C)[C@@]3(Cl)[C@@H](O)C[C@]2(C)[C@@]1(OC(=O)c1ccco1)C(=O)CCl measurement_name=z-score endpoint_value=-0.104
compound="Nc1cccc2c1CN(C1CCC(=O)NC1=O)C2=O (centres undefined)" measurement_name=z-score endpoint_value=0.686
compound="O=C1OC(CN2CCOCC2)CN1/N=C/c1ccc([N+](=O)[O-])o1 (centres undefined)" measurement_name=z-score endpoint_value=-1.11

Need z-score for each of these compounds.
1. Cc1cc(O)c2c(c1)C(=O)c1cccc(O)c1C2=O
2. CCc1cccc(CC)c1NC(=O)CN(CC(=O)O)CC(=O)O
3. C[C@H]1O[C@@H](O[C@H]2[C@@H](O)C[C@H](O[C@H]3[C@@H](O)C[C@H](O[C@H]4CC[C@@]5(C)[C@H](CC[C@@H]6[C@@H]5C[C@@H](O)[C@]5(C)[C@@H](C7=CC(=O)OC7)CC[C@]65O)C4)O[C@@H]3C)O[C@@H]2C)C[C@H](O)[C@@H]1O
4. COc1ccc(-c2cc(=O)c3c(O)cc(O[C@@H]4O[C@H](CO[C@@H]5O[C@@H](C)[C@H](O)[C@@H](O)[C@H]5O)[C@@H](O)[C@H](O)[C@H]4O)cc3o2)cc1O
5. C[C@H](CCC(=O)O)[C@H]1CC[C@H]2[C@@H]3[C@H](O)C[C@@H]4C[C@H](O)CC[C@]4(C)[C@H]3CC[C@]12C
6. CC(=O)[C@@]1(O)CC[C@H]2[C@@H]3CCC4=CC(=O)CC[C@]4(C)[C@H]3CC[C@@]21C
7. CCCCC(O)c1ccccc1 (centres undefined)

Result:
1. 0.837
2. 0.0436
3. 0.0199
4. 0.0112
5. -0.0721
6. 0.151
7. 0.0374

Go through the items and report each one's z-score.
1. NC(=O)C(c1ccccc1)(c1ccccc1)[C@@H]1CCN(CCc2ccc3c(c2)CCO3)C1
2. COc1ccc(C=CC(=O)Nc2ccccc2C(=O)O)cc1OC
3. NCCNCCNCCNCCN
4. COc1ccc(-c2nc3ccc(C4=NNC(=O)CC4C)cc3[nH]2)cc1 (centres undefined)
5. CC1CC(OC(=O)c2ccccc2O)CC(C)(C)C1 (centres undefined)

Result:
1: -1.37; 2: 0.573; 3: 0.462; 4: 0.199; 5: -0.623

Answer for every listed entry: what is its z-score? The entries follow.
1. CC(C)NC[C@@H](O)COc1ccc(CC(N)=O)cc1
2. Nc1c(CC(=O)O)cccc1C(=O)c1ccccc1
3. CCc1cc(Cl)c(OC)c(C(=O)NC[C@@H]2CCCN2CC)c1O
4. CCOCCn1c(N2CCCN(C)CC2)nc2ccccc21

Result:
-0.0401
-0.172
0.179
-0.184

---

Please go through the items and note down their red/green cell ratio (normalised).
- Assay method text: differential killing of epithelial or mesenchymal cells, primary screen, imaging, PC-3E GFP, TEM4-18 mCherry, co-culture (AID 1345086);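 further: normalised mesenchymal count divided by normalised epithelial count so high means epithelial killing; cells exposed to compound for 72 h before imaging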
- Assay context: imaging cell counts, at 1 µM, actives lie on both sides, counts scaled to control wells, 1 = unselective
One number for each entry.

Here are 5 compounds together with their reported answers.
compound=CNCc1ccccc1 endpoint_value=0.9
compound=O=C(O)c1cc(=O)c2cccc(O)c2[nH]1 endpoint_value=1.29
compound=CCn1cc(C(=O)O)c(=O)c2ccc(C)nc21 endpoint_value=0.88
compound="O=C1OC(CN2CCOCC2)CN1/N=C/c1ccc([N+](=O)[O-])o1 (configuration not stated)" endpoint_value=1.05
compound=CCN(CC)Cc1ccc(Nc2ccnc3cc(Cl)ccc23)cc1O endpoint_value=0.8

Respectfully, I request red/green cell ratio (normalised) for each entry included below.
1. CC(=O)Oc1cc(C(C)C)c(OCCN(C)C)cc1C
2. O=C(O)C1(O)C[C@@H](O)C(O)[C@H](O)C1 (some centres not stated)

Result:
1: 1.11; 2: 0.8

---

- Assay method text: inhibition of 3D7 malaria parasite growth – strain 3D7 (AID 2306);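 further: 0% = DMSO wells and 100% = chloroquine plus artemisinin control wells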
- Assay context: P. falciparum 3D7 erythrocytic growth, LDH absorbance, 72 h; at 2 µM; stronger effect = higher value
Measurement name: growth inhibition (%)
Give bare numbers, in %.

Some solved entries appear below for comparison.
compound="COc1cccc(NC(=O)c2ccc(NCCCN3CC(C)CC(C)C3)c([N+](=O)[O-])c2)c1 (centres undefined)" endpoint_value=100
compound="N#CC(CC(=O)c1ccc(Cl)cc1)c1cccc(F)c1 (centres undefined)" endpoint_value=97
compound=COc1ccc(NC(=O)C2CCN(CCCCCNC(=O)/C=C/c3ccc(Cl)c(Cl)c3)CC2)cc1 endpoint_value=98
compound=CN1CCN(Cc2ccc(-c3cc4nccc(Nc5ccc(Oc6ccccc6)cc5)c4cc3Cl)o2)CC1 endpoint_value=100
compound=CC(=O)Nc1cccc(C(=O)Nc2cccc(-c3cccc(-c4nc5ccccc5[nH]4)c3)c2)c1 endpoint_value=100

Working through the 4 compounds below one at a time, give growth inhibition for each.
1. O=C(/C=C/c1ccc(Cl)c(Cl)c1)NC1CCC(CN2CCC(c3c[nH]c4ccncc34)CC2)CC1 (centres undefined)
2. CCCS(=O)(=O)N1CCC(CO)(Cc2ccccc2C(F)(F)F)CC1
3. CC(=O)N1N=C(c2ccc(Cl)cc2)Sc2c1nc(C1CCCCC1)n2C(C)=O
4. CN(C)CCCN(C)C(=O)c1cc2cc(-c3ccccc3)ccc2n1S(=O)(=O)c1ccccc1

Result:
[100, 97, 103, 98]
